Record form. Attribute: TGI. Fill in for each entry.
# Test system: CAKI-1 renal
# experimental_details: NCI tumour cell line growth inhibition, 48 h

compound	reported_metric	reported
CCCCC1=C(C(=O)N2CCOCC2)C2(OCCO2)C1=O	TGI	78.1 µM
C/C(=N\N(c1ccccc1)c1ccccc1)c1c(O)cc(C)oc1=O	TGI	> 100 µM
Cc1sc2nc3c4ccccc4c(NCCCN(C)C)nn3c(=O)c2c1C	TGI	23.5 µM
Cn1c(=O)c2c(nc3n(Cc4ccccc4)c(=O)c(NCCCBr)cn23)n(C)c1=O	TGI	> 100 µM
CCn1c2ccc(C(=O)CCCN3CCCCC3)cc2c2cc(C(=O)CCCN3CCCCC3)ccc21	TGI	8.54 µM
O=c1nc2c(c(-c3ccc(Br)cc3)[nH]1)COC/C2=C\c1ccc(Br)cc1	TGI	> 50 µM

// each listed compound needs a value for TGI
1. O=c1[nH]c2nc3ccccc3nc2[nH]c1=O
2. C=C1C(OC2O[C@@H]3O[C@@]4(C)CC[C@H]5[C@H](C)CC[C@@H](C2=C)[C@@]35O4)O[C@@H]2O[C@@]3(C)CC[C@H]4[C@H](C)CC[C@@H]1[C@@]24O3 (stereo not given in full)
3. CCOC(=O)/C=C1\CCCC12OCCO2
4. NC(N)=NCCC1OC(=O)C2=C1c1c(O)ccc3nccc(c13)O2 (stereo not given)

1. > 100 µM
2. > 50 µM
3. > 100 µM
4. > 100 µM

----------
# Tested on: TK-10 renal
# experimental_details: NCI tumour cell line growth inhibition, 48 h
reported_metric: TGI

molecule	TGI
CCOC(=O)c1cc(/C=C/C(C)=C/C(=O)OC)oc1C	> 100 µM
O=C(c1ccncc1)n1nc(-c2ccccc2)c(N=Nc2ccccc2[N+](=O)[O-])c1-c1ccccc1	> 100 µM
Cc1[nH]c(=O)nc(NCCNCCO)c1C(=O)Nc1cccc2cc3ccccc3cc12	> 100 µM
O=C(O)c1cccc2cccc(-c3cccc4cccc(C(=O)O)c34)c12	> 100 µM
Cc1cccc(C)c1NC(=O)C1C(=O)N(c2c(C)cccc2C)C(=O)/C1=N\NC(N)=S (stereo unspecified)	> 100 µM
CCOc1ccc(Nc2nc(N)nc(N)c2N)cc1	> 100 µM
COc1cc(CC(C)NC(C)=O)cc(OC)c1 (stereo unspecified)	> 100 µM
COC(=O)C1C(C(=O)OC)C2(OC(c3ccc(Cl)cc3)=CC2=O)C12OC(c1ccc(Cl)cc1)=CC2=O (stereo unspecified)	48.5 µM
CCN(CC)C(=S)SC	> 100 µM
O=C1NC(=S)S/C1=C(/C=C(\CC(=O)c1ccccc1)c1ccc(Cl)cc1)c1ccccc1	> 100 µM

Then this molecule:
Bench note: what TGI did "C/C(Cl)=N\OC(=O)Nc1ccc(C)cc1" show?
28.5 µM

----------
# Tested on: HCT-15 colon
# experimental_details: NCI tumour cell line growth inhibition, 48 h
Record form. Attribute: TGI. Fill in for each entry.
Give bare numbers, in µM.

compound	TGI, µM
Cc1nc2sccn2c1-c1csc(Nc2cccc(Cl)c2C)n1	31.9

// each listed compound needs a value for TGI
1. CN(C)CC1CCC/C(=C\c2ccc(OC(=O)c3ccc(Cl)cc3)cc2)C1=O (stereo unspecified)
2. CN(C)CCNC(=O)c1cc(Cl)cc2ccc(-c3ccccc3)nc12
3. O=[N+]([O-])c1ccc(NC(=S)N=Nc2c(O)[nH]c3ccc([N+](=O)[O-])cc23)cc1
4. COc1ccc(Nc2nc(N)c(C(=O)c3c[nH]c4ccccc34)s2)cc1

3.3
9.49
46.8
8.91
